Target: OTU domain-containing protein 3 (Homo sapiens) (UniProt Q5T2D3)
Sequence (Q5T2D3 whole entry, looked up, the tested form may be a part): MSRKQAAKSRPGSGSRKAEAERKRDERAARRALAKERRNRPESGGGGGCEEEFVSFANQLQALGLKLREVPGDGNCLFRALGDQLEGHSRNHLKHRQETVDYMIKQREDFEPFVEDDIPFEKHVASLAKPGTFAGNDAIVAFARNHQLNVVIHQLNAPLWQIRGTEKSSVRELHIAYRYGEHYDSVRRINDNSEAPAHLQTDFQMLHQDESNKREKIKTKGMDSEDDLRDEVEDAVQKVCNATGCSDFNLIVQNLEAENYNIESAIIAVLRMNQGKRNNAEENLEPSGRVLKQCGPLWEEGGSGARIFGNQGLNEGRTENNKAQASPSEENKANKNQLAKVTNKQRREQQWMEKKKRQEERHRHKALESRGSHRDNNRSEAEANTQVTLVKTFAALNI
Assay: Validation of screening hits, potency titration, in vitro enzymatic, OTU domain-containing protein 3 DUB inhibitors (AID 1645868)
Conditions: purified OTUD3, ubiquitin-rhodamine cleavage fluorescence, 2 h
Active and inactive are the calls of the source.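 The calls were made as follows: active = maximal percent inhibition of the deubiquitinase OTUD3 of at least 30% across the tested doses; inactive = the rest.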
Use one of these outcomes when replying: active, inactive

As a guide, the following entries are already answered.
# COMPOUND, GROUP
data = [
    ("Cc1ccn(-c2ccc(NC(=O)c3ccccc3Sc3ccccc3C#N)cc2)n1", "active"),
    ("O=C(Nc1cccc2ccccc12)C1CCCN(S(=O)(=O)Cc2ccccc2)C1 (stereo not given)", "active"),
    ("O=C(Nc1ccccc1)c1cn2c3c(cccc3c1=O)CC2", "inactive"),
]

Problem: Outcome? COc1ccc(C(=O)Nc2cc(F)c3nc(N4CCOCC4)ccc3c2)c(OC)c1
Solution: inactive

Problem: Outcome? CCOc1cc(N2CCOCC2)c(OCC)cc1NC(=O)c1cc(-c2ccncc2)nc2ccccc12
Solution: inactive

====

Molecular target: OTU domain-containing protein 3 (Homo sapiens) (UniProt Q5T2D3)
Test: Validation of screening hits, potency titration, in vitro enzymatic, OTU domain-containing protein 3 DUB inhibitors (AID 1645868)
Settings: purified OTUD3, ubiquitin-rhodamine cleavage fluorescence, 2 h
Active and inactive are the calls of the source.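 How the source made its calls: active means maximal percent inhibition of the deubiquitinase OTUD3 of at least 30% across the tested doses; inactive means the rest.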
Use one of these outcomes when replying: active, inactive

As a guide, the following entries are already answered.
# MOLECULE, GROUP
measured = [
    ("Cc1cc(=O)n2c3c(c4c(cc13)c(CO)cc(=O)n4C)OC2", "inactive"),
    ("COc1c(Cl)ccc2c(=O)c3c(O)c4c5c(c3oc12)OCO[C@H]5[C@@H](OC)c1cc2c(c(O)c1-4)C(=O)N(C)[C@H](OC)[C@@H]2O", "inactive"),
    ("O=C(CC1C(=O)N(Cc2ccccc2)c2nc3ccccc3n21)NCCc1ccccc1 (centres undefined)", "active"),
]

Okay, now this molecule:
Problem: Outcome? O=C(CCc1ccccc1)N(CC1CCCO1)c1nc2ccccc2s1 (centres undefined)
Solution: inactive

====

Biological target: OTU domain-containing protein 3 (Homo sapiens) (UniProt Q5T2D3)
Assay: Validation of screening hits, potency titration, in vitro enzymatic, OTU domain-containing protein 3 DUB inhibitors (AID 1645868)
Conditions: purified OTUD3, ubiquitin-rhodamine cleavage fluorescence, 2 h
Active and inactive are the calls of the source.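 The calls were made as follows: active = maximal percent inhibition of the deubiquitinase OTUD3 of at least 30% across the tested doses; inactive = the rest.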
Use one of these outcomes when replying: active, inactive

As a guide, the following entries are already answered.
# COMPOUND, GROUP
measured = [
    ("COc1ccccc1NC(=O)c1cc(-c2ccccn2)nc2ccccc12", "active"),
    ("COc1ccc(C(=O)CSc2nnc(-c3cc4cccc(OC)c4o3)n2C)cc1OC", "inactive"),
    ("CCC1(C)Cc2c(sc3nc(SCC(=O)Nc4ccc(C(C)=O)cc4)nc(N)c23)CO1 (stereo not given)", "active"),
    ("CCOc1ccc2c(c1)c(=O)c(C(=O)c1ccccc1)cn2CC(=O)Nc1ccc2c(c1)OCCO2", "active"),
    ("O=C(c1ccc(COc2cccc3ccccc23)o1)N1CCC(Cc2ccccc2)CC1", "inactive"),
    ("Cc1ccc(C)c(-n2c(N)c(C(=O)NCCc3ccccc3)c3nc4ccccc4nc32)c1", "inactive"),
]

Problem: Outcome? CCN(CC)c1nc(F)c2c(c1F)S(=O)(=O)CCN2Cc1cccnc1
Solution: inactive

Problem: Outcome? COc1ccc(-c2nc(Cn3nnc(C(=O)Nc4ccc(C)cc4C)c3N)c(C)o2)cc1
Solution: inactive

Problem: Outcome? CCn1c(SCc2nc(N)c3ccccc3n2)nc2ccccc21
Solution: inactive

Problem: Outcome? Cn1c(=O)c(C(=O)CN2CCN(c3ccc(O)cc3)CC2)c(N)n(Cc2ccccc2)c1=O
Solution: inactive

Problem: Outcome? CCN1C(SCc2ccccc2F)=NS(=O)(=O)c2ccccc21
Solution: inactive

====

Biological target: OTU domain-containing protein 3 (Homo sapiens)
Assay: Validation of screening hits, potency titration, in vitro enzymatic, OTU domain-containing protein 3 DUB inhibitors (AID 1645868)
Details: purified OTUD3, ubiquitin-rhodamine cleavage fluorescence, 2 h
Active and inactive are the calls of the source.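 How the source made its calls: active means maximal percent inhibition of the deubiquitinase OTUD3 of at least 30% across the tested doses; inactive means the rest.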
Use one of these outcomes when replying: true (active), false (inactive)

As a guide, the following entries are already answered.
# COMPOUND, GROUP
data = [
    ("COCCNC(=O)c1cc(-c2cn(-c3ccccn3)c(C)n2)n2ccccc12", "false"),
    ("COc1ccc(C2SCC(=O)Nc3c2c(=O)[nH]n3C2CCCCC2)cc1 (stereo unspecified)", "true"),
    ("COc1cccc(-c2nc3cnccn3c2NCc2ccc3c(c2)OCO3)c1", "false"),
    ("Cc1nn(Cc2ccccc2)c(Cl)c1C(=O)NC1CCCc2ccccc21 (stereo unspecified)", "false"),
    ("COc1cccc2cc(C(=O)Nc3nc(-c4ccncc4)cs3)oc12", "true"),
]

Problem: Outcome? CCn1cc2c(n1)c(=O)n(Cc1ccc(C)cc1)c(=O)n2CC(=O)Nc1ccc(F)cc1
Solution: true

Problem: Outcome? COc1ccc(CC(=O)Nc2cccc(-c3nc4ncccc4o3)c2)cc1OC
Solution: false

Problem: Outcome? N#Cc1ccccc1OCc1csc(-c2ccccc2)n1
Solution: false

====

Biological target: OTU domain-containing protein 3 (Homo sapiens)
Assay: Validation of screening hits, potency titration, in vitro enzymatic, OTU domain-containing protein 3 DUB inhibitors (AID 1645868)
Settings: purified OTUD3, ubiquitin-rhodamine cleavage fluorescence, 2 h
Activity calls are given as the source filed them.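 Rule for the calls: active = maximal percent inhibition of the deubiquitinase OTUD3 of at least 30% across the tested doses; inactive = the rest.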
EXPERIMENTAL ENDPOINT: IC50

Known IC50 results, listed for orientation:
# COMPOUND, RESULT VALUE
measured = [
    ("Cc1ccc2c(=O)c3c([nH]c2c1C)CCN(CC(=O)NCc1ccccc1)C3", "> 50 µM (inactive)"),
    ("COc1ccc(-c2nc3n(n2)C(CC(=O)Nc2cccc4ccccc24)C(=O)N3)cc1 (stereo unspecified)", "13 µM"),
    ("Cc1ccc(C(=O)Nc2cc3c4c(c2)CC(=O)N4CCC3)cc1", "> 50 µM (inactive)"),
    ("COc1cccc(-c2cc(C(=O)N3CCN(c4ccc(N5CCOCC5)nn4)CC3)[nH]n2)c1", "> 50 µM (inactive)"),
    ("Cc1ccccc1NC(=O)c1ccn(COc2ccc(Cl)cc2)n1", "> 50 µM (inactive)"),
]

Recorded IC50 for COc1ccc2cc3c(nc2c1)OC(=O)N(CCc1cccc(F)c1)C3 on OTU domain-containing protein 3 (Homo sapiens) was > 50 µM (inactive)

Recorded IC50 for O=C(NCc1cccnc1)c1cnn2c(C(F)(F)F)cc(-c3ccccc3)nc12 on OTU domain-containing protein 3 (Homo sapiens) was > 50 µM (inactive)

Recorded IC50 for CC(C)Cc1nc2oc3c(N(C)CCO)ncnc3c2c2c1CCC2 on OTU domain-containing protein 3 (Homo sapiens) was > 50 µM (inactive)

Recorded IC50 for O=C(CSc1nc2cc(C(F)(F)F)ccc2s1)NCC(=O)c1ccccc1 on OTU domain-containing protein 3 (Homo sapiens) was 22 µM

Recorded IC50 for COc1cc(NC(=O)Cn2c(=O)n(-c3ccc(CC(=O)NC4CCCC4)cc3)c(=O)c3ccccc32)cc(OC)c1 on OTU domain-containing protein 3 (Homo sapiens) was > 50 µM (inactive)

Recorded IC50 for CC(=O)[C@H]1c2c(c(O)c3c(O)cccc3c2-c2c3c(c(O)c4c(O)cccc24)C(=O)C[C@](C)(O)[C@H]3C(C)=O)C(=O)C[C@]1(C)O on OTU domain-containing protein 3 (Homo sapiens) was > 50 µM (inactive)

====

Molecular target: OTU domain-containing protein 3 (Homo sapiens)
Assay: Validation of screening hits, potency titration, in vitro enzymatic, OTU domain-containing protein 3 DUB inhibitors (AID 1645868)
Details: purified OTUD3, ubiquitin-rhodamine cleavage fluorescence, 2 h
Active and inactive are the calls of the source.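 The calls were made as follows: active = maximal percent inhibition of the deubiquitinase OTUD3 of at least 30% across the tested doses; inactive = the rest.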
EXPERIMENTAL ENDPOINT: IC50

# MOLECULE, IC50
measured = [
    ("COc1ccc(-c2nc(C)c(C(=O)NCc3ccc(S(N)(=O)=O)cc3)s2)cc1", "> 50 µM (inactive)"),
]

So, Cc1cc(C)c2c(-n3cccc3)c(C(=O)NCCc3ccc(S(N)(=O)=O)cc3)sc2n1 ? Its IC50 was > 50 µM (inactive)

So, COc1ccc(OC)c(NC(=O)Cn2c(=O)n(CC3CCC(C(=O)NCCc4ccccc4)CC3)c(=O)c3ccccc32)c1 (centres undefined) ? Its IC50 was 31.3 µM

So, O=c1[nH]c(C2CCN(S(=O)(=O)c3ccc(S(=O)(=O)NC4CCCC4)cc3)CC2)nc2c1nnn2Cc1cccc(Cl)c1 ? Its IC50 was > 50 µM (inactive)

====

Molecular target: OTU domain-containing protein 3 (Homo sapiens) (UniProt Q5T2D3)
Assay: Validation of screening hits, potency titration, in vitro enzymatic, OTU domain-containing protein 3 DUB inhibitors (AID 1645868)
Settings: purified OTUD3, ubiquitin-rhodamine cleavage fluorescence, 2 h
Activity calls are given as the source filed them.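 Rule for the calls: active = maximal percent inhibition of the deubiquitinase OTUD3 of at least 30% across the tested doses; inactive = the rest.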
Use one of these outcomes when replying: active, inactive

As a guide, the following entries are already answered.
# COMPOUND, GROUP
records = [
    ("COc1ccccc1CNC(=O)c1ccccc1OCc1ccccc1Cl", "inactive"),
    ("CCc1ccc2[nH]c(=O)c(CN(CCc3ccc(OC)c(OC)c3)C(=O)Nc3ccccc3)cc2c1", "inactive"),
    ("CC(=O)c1cc2c(=O)c3c(C(=O)O)c(O)c(O)cc3oc2c(C(C)=O)c1-c1coc2cc(O)c(O)c(C(=O)O)c2c1=O", "active"),
    ("CN(Cc1ccccc1)S(=O)(=O)c1ccc2[nH]cc(C(=O)NCc3cccs3)c(=O)c2c1", "active"),
    ("O=C(CNC(=O)c1cccc(F)c1)Nc1nc2ccccc2[nH]1", "active"),
]

Problem: Outcome? CC(C)CC(NC(=O)c1ccc(Cl)cc1Cl)c1nc2ccccc2[nH]1 (stereo unspecified)
Solution: inactive

Problem: Outcome? COc1ccc(-n2ccc(=O)c(-c3nc(-c4ccccc4F)no3)n2)cc1OC
Solution: inactive

Problem: Outcome? Cc1ccccc1N1C(=O)/C(=C\c2cccn2C)c2ccccc2C1=O
Solution: inactive

Problem: Outcome? O=C(CCc1c[nH]c2ccccc12)Nc1ccc(N2CCOCC2)cc1
Solution: active

Problem: Outcome? Cc1ccccc1NC(=O)Nc1ccccc1OCc1cc(=O)n2cccc(C)c2n1
Solution: active
